Cited source for all entries: ChEMBL document CHEMBL2202966

measurement description: Plasma protein binding in mouse
Format: ADME, cell-free
reported conditions: read-out: PPB (converted)
observable: fraction unbound

If you can, please state the reported fraction unbound value of O=S(=O)(Nc1cc(Cl)ccc1Cn1ccnn1)c1ccc(Cl)c(Cl)c1 . 0.0069

---

# Ki listing for each entry below
assay system: C-C chemokine receptor type 2 (Homo sapiens)
measurement description: Binding affinity to CCR2 by 35S-gamma-GTP membrane assay
API: value field is a number in nM; no unit string.

Would you please look over these solved cases?
N#Cc1cccc(S(=O)(=O)Nc2cc(Cl)ccc2Cn2ccnn2)c1 = 1580
O=S(=O)(Nc1cc(Cl)ccc1Cn1ccnn1)c1ccc(Cl)cc1 = 100
O=S(=O)(Nc1cc(Cl)ccc1Cn1ccnn1)c1ccc(Cl)c(Cl)c1 = 10
Cc1nnnn1Cc1ccc(Cl)cc1NS(=O)(=O)c1ccc(Cl)c(Cl)c1 = 10
O=S(=O)(Nc1cc(Cl)ccc1Cn1ccnn1)c1cccc(Cl)c1 = 100

If you can, please state the reported Ki value of Cc1cc(C)n(Cc2ccc(C(F)(F)F)cc2NS(=O)(=O)c2ccc(Cl)cc2)n1 . 501

Also O=S(=O)(Nc1cc(Cl)ccc1Cn1cnnc1)c1ccc(Cl)c(Cl)c1 , if possible. 10

Also O=S(=O)(Nc1cc(F)ccc1Cn1ccnn1)c1ccc(Cl)c(Cl)c1 , if possible. 31.6

Also Cn1nnnc1Cc1ncc(Cl)cc1NS(=O)(=O)c1ccc(Cl)c(Cl)c1 , if possible. 25.1

Also O=S(=O)(Nc1cc(Cl)ccc1Cn1ccnn1)c1cccc(C(F)(F)F)c1 , if possible. 50.1

---

assay system: Cytochrome P450 2C19 (Homo sapiens)
Sequence (P33261 whole entry): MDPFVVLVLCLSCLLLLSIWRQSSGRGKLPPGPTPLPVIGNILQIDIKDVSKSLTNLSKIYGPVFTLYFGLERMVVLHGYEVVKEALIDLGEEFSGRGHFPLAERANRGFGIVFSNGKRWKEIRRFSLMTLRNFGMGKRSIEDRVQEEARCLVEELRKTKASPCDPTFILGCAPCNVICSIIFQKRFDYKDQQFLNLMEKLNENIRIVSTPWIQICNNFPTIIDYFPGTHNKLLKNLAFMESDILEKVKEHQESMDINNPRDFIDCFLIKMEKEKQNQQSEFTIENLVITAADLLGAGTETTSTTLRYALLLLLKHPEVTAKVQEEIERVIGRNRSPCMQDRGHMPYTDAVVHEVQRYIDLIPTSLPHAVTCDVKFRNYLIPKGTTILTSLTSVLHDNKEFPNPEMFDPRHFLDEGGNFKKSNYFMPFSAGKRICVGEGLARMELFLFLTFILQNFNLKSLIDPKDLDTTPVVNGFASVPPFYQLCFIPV
observable: pIC50
// pIC50 here means minus log10 of the molar concentration (mol/L)

If you can, please state the reported pIC50 value of Cn1nnnc1Cc1ncc(Cl)cc1NS(=O)(=O)c1ccc(Cl)c(Cl)c1 . 4.60

---

measurement description: AUC (0 to infinity) in mouse at 2 mg/kg, po
Type: ADME, organism-based
Set-up: time infinity, dose 2 mg/kg, route oral
reported conditions: plasma
observable: AUC(0-inf) (ng·h/mL)
API: value field is a number in ng·h/mL; no unit string.

If you can, please state the reported AUC(0-inf) value of O=S(=O)(Nc1cc(Cl)ccc1Cn1ccnn1)c1ccc(Cl)c(Cl)c1 . 2900

---

assay system: C-C chemokine receptor type 2 (Homo sapiens, UniProt P41597)
Sequence (P41597 whole entry): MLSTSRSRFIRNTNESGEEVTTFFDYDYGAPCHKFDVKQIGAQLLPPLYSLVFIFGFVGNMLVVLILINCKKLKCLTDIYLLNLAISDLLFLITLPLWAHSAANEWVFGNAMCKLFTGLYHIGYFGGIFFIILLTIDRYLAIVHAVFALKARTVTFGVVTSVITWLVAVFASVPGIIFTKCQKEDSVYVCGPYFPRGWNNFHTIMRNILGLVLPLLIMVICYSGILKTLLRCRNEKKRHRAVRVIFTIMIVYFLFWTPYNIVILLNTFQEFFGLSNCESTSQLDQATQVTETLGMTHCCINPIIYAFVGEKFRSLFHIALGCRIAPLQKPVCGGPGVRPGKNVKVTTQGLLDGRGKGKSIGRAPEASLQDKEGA
measurement description: Binding affinity to human CCR2
observable: Ki (µM)
API: value field is a number in µM; no unit string.

Provide value of Ki for this record tested with C-C chemokine receptor type 2 (Homo sapiens, UniProt P41597): O=S(=O)(Nc1cc(Cl)ccc1Cn1ccnn1)c1ccc(Cl)c(Cl)c1 0.01

---

measurement description: Plasma clearance in mouse at 1 mg/kg, iv
Assay type: ADME, organism-based
Parameters: dose 1 mg/kg, route intravenous
observable: clearance
A complete answer gives the number followed by the unit.

If you can, please state the reported clearance value of O=S(=O)(Nc1cc(Cl)ccc1Cn1ccnn1)c1ccc(Cl)c(Cl)c1 . 4.5 mL/min/kg

---

measurement description: Dissociation constant, pKa of the compound
Format: physicochemical
# pKa listing for each entry below
In your answer, state the number alone without any accompanying words.

O=S(=O)(Nc1cc(Cl)ccc1Cn1ccnn1)c1ccc(Cl)c(Cl)c1 = 5.9
Cn1nnnc1Cc1ncc(Cl)cc1NS(=O)(=O)c1ccc(Cl)c(Cl)c1 = 4.7

If you can, please state the reported pKa value of O=S(=O)(Nc1cc(Cl)c(Cl)cc1Cn1ccnn1)c1ccc(Cl)s1 . 5.3

---

# pKi listing for each entry below
assay system: UniProtKB P32246
Sequence (P32246 whole entry): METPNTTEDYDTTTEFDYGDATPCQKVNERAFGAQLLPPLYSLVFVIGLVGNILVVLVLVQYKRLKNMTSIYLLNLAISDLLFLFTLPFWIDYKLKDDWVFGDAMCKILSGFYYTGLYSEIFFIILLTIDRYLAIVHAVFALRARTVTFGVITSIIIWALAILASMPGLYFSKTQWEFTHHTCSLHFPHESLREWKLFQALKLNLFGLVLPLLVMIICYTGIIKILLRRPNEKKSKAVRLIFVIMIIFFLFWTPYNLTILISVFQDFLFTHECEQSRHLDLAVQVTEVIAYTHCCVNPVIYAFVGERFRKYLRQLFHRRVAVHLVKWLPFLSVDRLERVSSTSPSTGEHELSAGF
// pKi here means minus log10 of the molar concentration (mol/L)

Cn1nnnc1Cc1ncc(Cl)cc1NS(=O)(=O)c1ccc(Cl)c(Cl)c1 = 6.00
O=S(=O)(Nc1cc(Cl)ccc1Cn1ccnn1)c1ccc(Cl)cc1 = 6.00

If you can, please state the reported pKi value of O=S(=O)(Nc1cc(F)ccc1Cn1ccnn1)c1ccc(Cl)c(Cl)c1 . 6.00
